Entry source: patent US20210032365A1

Molecular target: T1, human C1s (human, UniProt P09871 16-688)
T1 construct: also called hC1s; serum-derived human C1s (CompTech)
T1 sequence: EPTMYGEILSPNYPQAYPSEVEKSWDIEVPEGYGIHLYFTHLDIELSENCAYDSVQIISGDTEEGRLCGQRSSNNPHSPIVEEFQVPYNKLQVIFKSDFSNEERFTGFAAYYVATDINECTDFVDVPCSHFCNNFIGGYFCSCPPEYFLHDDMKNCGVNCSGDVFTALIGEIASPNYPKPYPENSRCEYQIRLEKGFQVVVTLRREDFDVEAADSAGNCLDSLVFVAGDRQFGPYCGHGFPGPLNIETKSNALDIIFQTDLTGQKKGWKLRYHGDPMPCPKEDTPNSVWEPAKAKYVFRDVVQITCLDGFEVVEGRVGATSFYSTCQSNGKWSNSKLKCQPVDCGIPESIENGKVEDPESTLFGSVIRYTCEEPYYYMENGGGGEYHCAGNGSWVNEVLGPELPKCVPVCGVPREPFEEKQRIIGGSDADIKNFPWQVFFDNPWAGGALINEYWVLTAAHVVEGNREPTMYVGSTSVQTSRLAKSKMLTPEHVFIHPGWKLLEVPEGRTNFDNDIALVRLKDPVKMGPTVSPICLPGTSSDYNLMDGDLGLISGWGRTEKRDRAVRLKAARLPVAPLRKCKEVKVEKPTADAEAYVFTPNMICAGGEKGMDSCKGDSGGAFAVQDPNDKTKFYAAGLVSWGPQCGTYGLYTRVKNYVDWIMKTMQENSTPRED
Assay: SPR; KD pH 5.8 1.2 mM Ca / KD pH 7.4 1.2 mM Ca
Bucketed by reported KD 5(+)/7(+), buckets being group 1 (below 1), group 2 (1 to below 3), group 3 (3 or more)

IN: Class (by measured KD 5(+)/7(+)) for C1_IPN009VH2-SG4GK/IPN93L0029-SK1 (antibody, human IgG4 S228P, kappa, name in Kabat numbering, V domains shown, also called IPN009VH2/IPN93L0029) VH: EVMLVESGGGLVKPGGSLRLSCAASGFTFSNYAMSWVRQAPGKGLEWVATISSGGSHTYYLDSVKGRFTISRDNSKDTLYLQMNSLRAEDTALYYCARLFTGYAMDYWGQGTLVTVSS VL: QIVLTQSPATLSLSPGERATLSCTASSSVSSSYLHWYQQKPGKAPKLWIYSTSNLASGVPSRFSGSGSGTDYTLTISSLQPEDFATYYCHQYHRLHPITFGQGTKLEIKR
OUT: group 1

IN: Band for the recorded KD 5(+)/7(+) of C1_IPN009VH2-SG4GK/IPN93L0030-SK1 (antibody, human IgG4 S228P, kappa, name in Kabat numbering, V domains shown, also called IPN009VH2/IPN93L0030) VH: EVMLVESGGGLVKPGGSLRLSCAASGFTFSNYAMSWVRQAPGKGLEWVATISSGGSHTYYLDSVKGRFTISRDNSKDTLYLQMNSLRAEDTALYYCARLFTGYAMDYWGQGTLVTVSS VL: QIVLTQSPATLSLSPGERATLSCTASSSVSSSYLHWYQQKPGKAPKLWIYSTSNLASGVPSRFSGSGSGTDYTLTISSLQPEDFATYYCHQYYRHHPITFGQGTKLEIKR ?
OUT: group 2

IN: # classify by KD 5(+)/7(+) band: C1_IPN92H0033-SG4GK/IPN93L0031-SK1 (antibody, human IgG4 S228P, kappa, name in Kabat numbering, V domains shown, also called IPN92H0033/IPN93L0031) VH: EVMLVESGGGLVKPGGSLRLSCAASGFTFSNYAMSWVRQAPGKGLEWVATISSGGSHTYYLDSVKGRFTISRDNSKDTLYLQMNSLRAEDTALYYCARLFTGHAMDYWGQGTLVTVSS VL: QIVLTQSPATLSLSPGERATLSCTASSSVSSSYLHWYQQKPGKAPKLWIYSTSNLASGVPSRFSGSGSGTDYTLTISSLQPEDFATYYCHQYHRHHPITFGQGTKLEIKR
OUT: group 1

IN: Lab note: which band did C1_IPN92H0048-SG4GK/IPN93L0024-SK1 (antibody, human IgG4 S228P, kappa, name in Kabat numbering, V domains shown, also called IPN92H0048/IPN93L0024) VH: EVMLVESGGGLVKPGGSLRLSCAASGHTFSNYAMSWVRQAPGKGLEWVATISSGGSHTYYLDSVKGRFTISRDNSKDTLYLQMNSLRAEDTALYYCARLFTGHAMDYWGQGTLVTVSS VL: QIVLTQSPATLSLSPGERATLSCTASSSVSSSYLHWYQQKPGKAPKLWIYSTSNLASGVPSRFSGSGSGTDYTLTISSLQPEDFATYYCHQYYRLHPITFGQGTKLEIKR land in?
OUT: group 3

IN: Lab log: C1_IPN92H0026-SG4GK/IPN93L0024-SK1 (antibody, human IgG4 S228P, kappa, name in Kabat numbering, V domains shown, also called IPN92H0026/IPN93L0024) VH: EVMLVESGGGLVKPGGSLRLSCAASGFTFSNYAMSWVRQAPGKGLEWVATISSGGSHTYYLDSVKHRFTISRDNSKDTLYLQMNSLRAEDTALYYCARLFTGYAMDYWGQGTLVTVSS VL: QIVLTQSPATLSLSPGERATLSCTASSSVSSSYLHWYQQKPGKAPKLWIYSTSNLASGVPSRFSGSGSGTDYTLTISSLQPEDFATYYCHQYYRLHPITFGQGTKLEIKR — assign KD 5(+)/7(+) category
OUT: group 2

IN: Kindly state the category for this binder: C1_IPN92H0033-SG4GK/IPN93L0021-SK1 (antibody, human IgG4 S228P, kappa, name in Kabat numbering, V domains shown, also called IPN92H0033/IPN93L0021) VH: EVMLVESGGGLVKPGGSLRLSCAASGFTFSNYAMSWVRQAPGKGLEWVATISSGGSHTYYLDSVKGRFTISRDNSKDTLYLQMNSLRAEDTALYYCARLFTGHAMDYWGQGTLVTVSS VL: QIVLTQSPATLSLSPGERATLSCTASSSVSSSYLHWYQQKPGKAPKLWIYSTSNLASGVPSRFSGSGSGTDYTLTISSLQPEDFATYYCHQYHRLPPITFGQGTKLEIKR
OUT: group 2

IN: Exercise: read the entry C1_IPN92H0026-SG4GK/IPN93L0031-SK1 (antibody, human IgG4 S228P, kappa, name in Kabat numbering, V domains shown, also called IPN92H0026/IPN93L0031) VH: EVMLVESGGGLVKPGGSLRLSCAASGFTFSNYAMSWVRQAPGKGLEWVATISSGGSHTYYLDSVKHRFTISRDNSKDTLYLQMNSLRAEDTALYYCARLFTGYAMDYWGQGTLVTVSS VL: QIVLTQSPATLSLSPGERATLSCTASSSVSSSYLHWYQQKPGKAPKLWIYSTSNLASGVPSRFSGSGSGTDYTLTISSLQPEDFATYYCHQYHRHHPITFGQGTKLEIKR and state which class it falls under.
OUT: group 3

IN: # bin label for C1_IPN92H0026-SG4GK/IPN93L0023-SK1 (antibody, human IgG4 S228P, kappa, name in Kabat numbering, V domains shown, also called IPN92H0026/IPN93L0023) VH: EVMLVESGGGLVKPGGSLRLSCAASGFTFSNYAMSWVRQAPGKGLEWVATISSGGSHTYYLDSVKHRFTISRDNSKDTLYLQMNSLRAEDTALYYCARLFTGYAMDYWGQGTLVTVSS VL: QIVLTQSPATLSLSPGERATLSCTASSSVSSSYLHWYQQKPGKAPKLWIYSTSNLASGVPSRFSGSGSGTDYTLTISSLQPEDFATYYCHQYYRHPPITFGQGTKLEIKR
OUT: group 2

IN: For the record C1_IPN92H0026-SG4GK/IPN93L0028-SK1 (antibody, human IgG4 S228P, kappa, name in Kabat numbering, V domains shown, also called IPN92H0026/IPN93L0028) VH: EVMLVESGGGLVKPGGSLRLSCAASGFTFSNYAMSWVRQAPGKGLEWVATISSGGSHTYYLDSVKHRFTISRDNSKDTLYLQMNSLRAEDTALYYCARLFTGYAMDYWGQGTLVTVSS VL: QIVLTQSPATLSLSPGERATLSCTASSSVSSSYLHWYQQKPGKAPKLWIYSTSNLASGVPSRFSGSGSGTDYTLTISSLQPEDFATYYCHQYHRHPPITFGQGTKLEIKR , report the class its KD 5(+)/7(+) corresponds to.
OUT: group 2
